# procedure.summary: gradient 5% acetonitrile 3 min, to 50% in 2 min, to 85% in 15 min, held 3 min, 100 µL/min
# experimental.context: column: Zorbax Extend-C18 2.1 x 50 mm; eluents: water / acetonitrile, 0.1% formic acid
measured.property: RP-LC retention time (s)

Some molecules with recorded RP-LC retention time:
Query: Could you tell me which RP-LC retention time is on file for CCOC(=O)c1cc(S(=O)(=O)N2CCCC2C(=O)N(CC)c2ccc(OC)cc2)cn1C (stereo not given) ?
Response: 892

Query: Could you tell me which RP-LC retention time is on file for CCCn1ccc2sc(C)c(C(=O)NCc3cc(C)ccc3C)c2c1=O ?
Response: 1020

Query: Could you tell me which RP-LC retention time is on file for O=C1COc2cc(S(=O)(=O)N3CCCC3C(=O)NCc3ccc4c(c3)OCO4)c(Cl)cc2N1 (stereo not given) ?
Response: 725

Query: Could you tell me which RP-LC retention time is on file for CC(CCc1ccccc1)NC(=O)C1CN(C(=O)c2cccs2)C1 (stereo not given) ?
Response: 727

Query: Could you tell me which RP-LC retention time is on file for O=C(Cn1cccc(-c2nc(-c3ccc(F)cc3)no2)c1=O)N1CCCC1 ?
Response: 727

(1) CCCCn1cc(S(=O)(=O)Nc2ccccc2)c2cccnc21
(2) CCc1cc(=O)n(CC(=O)N(CC)Cc2ccccc2)c(N)n1
Query: Hi! Which is lower in terms of RP-LC retention time, the first one 1 or the second one 2 ? Indicate which entry you chose by stating its label.
Response: 2

(1) Cc1ccc(C)c(NC(=O)Cn2nc3c(Oc4ccc(C(C)C)cc4)nccn3c2=O)c1
(2) Cc1noc(CNC(=O)CN(C)c2nc3c(F)cccc3s2)n1
Query: Please state the entry with greater RP-LC retention time among 1 and 2 . Indicate which entry you chose by stating its label.
Response: 1
(1: 1080 s, 2: 667 s)

* * *

# procedure.summary: gradient 5% acetonitrile 3 min, to 50% in 2 min, to 85% in 15 min, held 3 min, 100 µL/min
# experimental.context: column: Zorbax Extend-C18 2.1 x 50 mm; eluents: water / acetonitrile, 0.1% formic acid
measured.property: RP-LC retention time (s)

Some compounds with recorded RP-LC retention time:
Query: Could you tell me which RP-LC retention time is on file for CCC(C)NC(=O)c1ccc(-c2cccs2)nc1 (stereo not drawn) ?
Response: 816

Query: Could you tell me which RP-LC retention time is on file for CSc1ccc(-c2nc3cnccn3c2Nc2cccc(C(=O)N3CCOCC3)c2)cc1 ?
Response: 704

Query: Could you tell me which RP-LC retention time is on file for Cc1ccc(CNC(=O)C2Cn3cccc3C(=O)N2)o1 (stereo not drawn) ?
Response: 633

(a) O=C(COc1ccc(F)c(F)c1)NCC1CCOCC1
(b) COc1cccc(Cn2c(=O)c3sccc3n(Cc3nc(-c4ccc(F)c(Cl)c4)no3)c2=O)c1
Query: Hi! Which is lower in terms of RP-LC retention time, the first one a or the second one b ? Indicate which entry you chose by stating its label.
Response: a

(a) CCOc1ccc(S(=O)(=O)N2CCCC(C(=O)NCCOC)C2)cc1C (stereo not drawn)
(b) COc1ccc(/C=C/C(=O)c2c(OC)cc(O)cc2OC)cc1
Query: Please state the entry with greater RP-LC retention time among a and b . Indicate which entry you chose by stating its label.
Response: b
(b: 1160 s, a: 769 s)

(a) CC1Cc2nc(SCC(=O)NCC3CCCO3)n(-c3ccc(F)cc3)c(=O)c2S1 (stereo not drawn)
(b) Cc1cccc(-c2nnc(-c3cc(S(=O)(=O)N(C)C)ccc3Cl)o2)c1
Query: Hi! Which is lower in terms of RP-LC retention time, the first one a or the second one b ? Indicate which entry you chose by stating its label.
Response: a
(a: 728 s, b: 1050 s)

// data source = the METLIN SMRT retention time set (Domingo-Almenara et al. 2019)
